- Study System: RAF proto-oncogene serine/threonine-protein kinase (Homo sapiens) (UniProt P04049)
- Sequence (P04049 whole entry): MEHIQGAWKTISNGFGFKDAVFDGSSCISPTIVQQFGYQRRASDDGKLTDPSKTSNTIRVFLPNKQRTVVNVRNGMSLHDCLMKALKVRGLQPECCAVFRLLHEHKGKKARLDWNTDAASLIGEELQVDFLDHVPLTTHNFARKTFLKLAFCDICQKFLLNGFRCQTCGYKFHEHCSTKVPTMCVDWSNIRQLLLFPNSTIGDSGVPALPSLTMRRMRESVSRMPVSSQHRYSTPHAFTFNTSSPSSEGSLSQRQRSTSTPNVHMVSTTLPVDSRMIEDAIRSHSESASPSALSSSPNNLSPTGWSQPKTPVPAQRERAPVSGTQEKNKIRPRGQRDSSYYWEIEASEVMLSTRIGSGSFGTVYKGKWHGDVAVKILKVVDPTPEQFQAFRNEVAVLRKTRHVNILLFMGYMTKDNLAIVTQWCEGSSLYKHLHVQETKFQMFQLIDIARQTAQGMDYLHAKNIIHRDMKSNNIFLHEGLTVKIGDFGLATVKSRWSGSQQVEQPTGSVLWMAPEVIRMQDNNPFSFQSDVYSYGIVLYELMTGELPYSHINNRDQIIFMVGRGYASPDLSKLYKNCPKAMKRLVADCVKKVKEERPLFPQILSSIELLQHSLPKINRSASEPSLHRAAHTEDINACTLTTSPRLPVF
- Condition Notes: at 1 µM
For each record, write down the corresponding residual activity.
Give a bare numeral; the unit % is implied.

Query: Assign residual activity to the following record: O=C1NC(=O)c2c1c1c3ccccc3[nH]c1c1[nH]c3cc(Br)ccc3c21
Response: 82

Query: Assign residual activity to the following record: N#Cc1cnc2cnc(NCc3cccnc3)cc2c1Nc1ccc(F)c(Cl)c1
Response: 77

Query: Assign residual activity to the following record: COc1ccc(OC)c2c(=S)c3ccccc3[nH]c12
Response: 87

Query: Assign residual activity to the following record: O=C1Nc2ccc(Br)cc2/C1=C\c1cc2c([nH]1)CCCC2
Response: 99
